All figures here come from ChEMBL document CHEMBL1201862.

- Tested on: NCI/ADR-RES
- assay.text: NCI tumour cell line growth inhibition, 48 h
Calls of active or inactive are those of the source. No stated cut-off is given here; in the data, active = GI50 up to about 1.1 µM and inactive = higher.
measured.attribute: GI50

[[record]]
molecule = "Cc1ccc(NC(=O)/C(Cc2cc(=O)oc3cc(O)ccc23)=N\\NC(C)(C)C)cc1C"
test_system = "NCI/ADR-RES"
assay_value = "> 100 µM (inactive)"

[[record]]
molecule = "c1ccc2c(c1)C(=Nc1ccc(N=C3c4ccccc4-c4ccccc43)cc1)c1ccccc1-2"
test_system = "NCI/ADR-RES"
assay_value = "> 100 µM (inactive)"

[[record]]
molecule = "NC(=O)C1CCCN1C(=O)N(CCCl)N=O (stereo unspecified)"
test_system = "NCI/ADR-RES"
assay_value = "> 100 µM (inactive)"

[[record]]
molecule = "N#Cc1c(O)c(/C=N/c2ncccn2)c(=O)n2c1[nH]c1ccccc12"
test_system = "NCI/ADR-RES"
assay_value = "> 100 µM (inactive)"

[[record]]
molecule = "CN(C)c1n/c(=N/Cc2ccco2)ss1"
test_system = "NCI/ADR-RES"
assay_value = "75.3 µM (inactive)"


Read the next record carefully.
Query string: For `Cc1c2c(n(CCc3ccccc3)c1C)NN=C(C#N)S2(=O)=O` , write its GI50.
Result string: > 100 µM (inactive)

====

- Test system: DLD-1
- assay.text: NCI tumour cell line growth inhibition, 48 h
Active and inactive are the calls of the source. No stated cut-off is given here; in the data, active = GI50 up to about 1.1 µM and inactive = higher.
measured.attribute: GI50

A selection of reference data follows.
[[record]]
compound = "COC(=O)C(=O)C(C#N)c1ccc(CC#N)cc1 (stereo not given)"
test_system = "DLD-1"
assay_value = "> 100 µM (inactive)"

[[record]]
compound = "COC1=CC(=O)c2c(c(O)c3oc4cc(OC)cc(C)c4c(=O)c3c2O)C1=O"
test_system = "DLD-1"
assay_value = "1.8 µM (inactive)"

[[record]]
compound = "Cc1nn2c(nc1=O)sc1ccc3ccccc3c12"
test_system = "DLD-1"
assay_value = "> 100 µM (inactive)"

[[record]]
compound = "CCCC/C=C/C=C/C=C/CCCCCCCC(=O)OCC(COC(=O)CCCCCCC/C=C/C1C=CC(CCCC)C(C(=O)O)C1C(=O)O)OC(=O)CCCCCCC/C=C/C=C/C=C/CCCC.OCCNCO (stereo not given)"
test_system = "DLD-1"
assay_value = "20 µM (inactive)"

[[record]]
compound = "NNC(=O)CCC(=O)NC1C2CC3CC(C2)CC1C3 (stereo not given)"
test_system = "DLD-1"
assay_value = "> 100 µM (inactive)"

[[record]]
compound = "Cc1nn2c3c(nnc2c1C#N)C(=O)NN=C(N)S3"
test_system = "DLD-1"
assay_value = "> 100 µM (inactive)"

[[record]]
compound = "COc1ccc(/C=C\\c2cc(OC)c(OC)c(OC)c2)cc1"
test_system = "DLD-1"
assay_value = "0.0004 µM (active)"

[[record]]
compound = "COc1ccc(/C=C2\\SC(c3ccc(OC)cc3)N(NC(=O)Cc3ccccc3)C2=O)cc1 (stereo not given)"
test_system = "DLD-1"
assay_value = "> 100 µM (inactive)"


I'm hoping you can list GI50 for every compound here, please.
1. COc1ccccc1C12OC(=O)C1(C)Oc1ccccc1C2=O (stereo not given)
2. CCC(=O)OC1CCn2c1nc1c2C(=O)C(C)=C(N2CC2)C1=O (stereo not given)

Result string:
["> 100 µM (inactive)", "0.105 µM (active)"]

====

Would you kindly list GI50 for each of these molecules?
- Tested on: UO-31
- assay.text: NCI tumour cell line growth inhibition, 48 h
Active and inactive are the calls of the source. Rule as the data show it: active = GI50 up to about 1.1 µM and inactive = higher.

A selection of reference data follows.
[[record]]
molecule = "COc1ccc(-n2cnnc2-c2nsc3ccccc23)cc1"
test_system = "UO-31"
measured_attribute = "GI50"
assay_value = "> 100 µM (inactive)"

[[record]]
molecule = "Cc1cc(N(CCC#N)S(C)(=O)=O)ccc1C=O"
test_system = "UO-31"
measured_attribute = "GI50"
assay_value = "> 100 µM (inactive)"

[[record]]
molecule = "NCCCC[C@H](N)C(=O)Nc1ccc(-c2nc3ccccc3s2)cc1"
test_system = "UO-31"
measured_attribute = "GI50"
assay_value = "12.7 µM (inactive)"

[[record]]
molecule = "COC(=O)c1nc(N)nc(O)c1-c1ccc(Cl)cc1"
test_system = "UO-31"
measured_attribute = "GI50"
assay_value = "> 100 µM (inactive)"


I'm hoping you can list GI50 for every molecule here, please.
1. CC(C)N(O)C(=N)c1ccccc1
2. Cc1nc2ccccc2c(=O)n1-c1ccccc1I

Result string:
> 100 µM (inactive)
90.2 µM (inactive)

I'm hoping you can list GI50 for every molecule here, please.
1. OC1OCC(COc2cc(Cl)c(Cl)cc2Cl)OC1O (configuration not stated)
2. c1ccc2c3nc(C4CCCC4)nc-3c(NC3CCCC3)[nH]c2c1
3. O=CCCCC(Sc1ccccc1)Sc1ccccc1
4. Cc1nc2cc(Cl)c(N)cc2[nH]1
5. N#Cc1c2ccccc2c(Cc2ccc3c(c2)OCCOCCOCCOCCOCCO3)c2ccccc12
6. CCC(=O)Nc1nc2c(ncn2C2OC(COC(=O)CC)C(OC(=O)CC)C2OC(=O)CC)c(=O)[nH]1 (configuration not stated)

Result string:
1: 41.9 µM (inactive); 2: 21.6 µM (inactive); 3: 14.7 µM (inactive); 4: > 100 µM (inactive); 5: 3.85 µM (inactive); 6: > 100 µM (inactive)

====

- System: PC-3
- assay.text: NCI tumour cell line growth inhibition, 48 h
Activity calls are given as the source filed them. Rule as the data show it: active = GI50 up to about 1.1 µM and inactive = higher.
The reply should name one outcome from active, inactive

Query string: // outcome(item) with item = CCC1(O)C(=O)OCc2c1cc1n(c2=O)Cc2cc3ccc(C=O)cc3nc2-1 (stereo not given)
Result string: inactive

====

- Test system: K562
- assay.text: NCI tumour cell line growth inhibition, 48 h
The source made the active and inactive calls. Cut-off read from the data, not from the text of the source: active = GI50 up to about 1.1 µM and inactive = higher.
The reply should name one outcome from true (1) = active, false (0) = inactive

Worked set:
[[record]]
molecule = "CC(=O)CCC(=O)C(=[N+]=[N-])S(=O)(=O)c1ccccc1"
class_label = "false (0)"

[[record]]
molecule = "Nc1nc(N)c2cc(Sc3ccc4ccccc4c3)ccc2n1"
class_label = "true (1)"


Query string: // outcome(item) with item = CC(C)(CC(O)C#N)/[N+]([O-])=[N+](\[O-])C(C)(C)CC(O)C#N (stereo unspecified)
Result string: false (0)

Query string: // outcome(item) with item = O=C1/C(=C\c2cccc(Oc3ccccc3)c2)S(=O)(=O)C(c2ccccc2)N1c1cccc(Cl)c1 (stereo unspecified)
Result string: false (0)

Query string: // outcome(item) with item = CCNC(=O)CCC(C)[C@H]1CCC2C3C(C[C@H](OC(C)=O)[C@@]21C)[C@@]1(C)CCC2(C[C@H]1C[C@H]3OC(C)=O)OOC1(CCC(C)CC1)OO2 (stereo partly specified)
Result string: false (0)

Query string: // outcome(item) with item = CCCC(=O)OCC1OC(n2cc(F)c(=O)[nH]c2=O)CC1OC(=O)CCC (stereo unspecified)
Result string: false (0)

Query string: // outcome(item) with item = CC(C)OC(=O)C(NC(=O)C(CC(=O)OCc1ccccc1)NC(=O)OCc1ccccc1)NC(=O)C1C(C)(C)CCC1(C)C (stereo unspecified)
Result string: false (0)

====

Would you kindly list GI50 for each of these compounds?
- Tested on: SF-268
- assay.text: NCI tumour cell line growth inhibition, 48 h
The source made the active and inactive calls. No stated cut-off is given here; in the data, active = GI50 up to about 1.1 µM and inactive = higher. Where a SMILES comes first, the peptide text is derived from it. The star is where a group is joined. Boc = CC(C)(C)OC(=O)*

A selection of reference data follows.
[[record]]
compound = "CC(C)(C)OC(=O)NCC(=O)NCC(=O)NCC(=O)NCC(=O)O (Boc-GGGG-OH)"
measured_attribute = "GI50"
assay_value = "> 100 µM (inactive)"

[[record]]
compound = "CCCCCCCCCCNC(=O)CCC(NC(=O)c1ccc(N(C)Cc2cnc3nc(N)nc(N)c3n2)cc1)C(=O)NCCCCCCCCCC (stereo not drawn)"
measured_attribute = "GI50"
assay_value = "9.62 µM (inactive)"

[[record]]
compound = "O=C[C@]12CC=C3OC4OC5(CCCCC5)OC4[C@H]3[C@H]1C(=O)C=CC2=O (stereo partly drawn)"
measured_attribute = "GI50"
assay_value = "8.71 µM (inactive)"

[[record]]
compound = "C/C(=N\\NC(=O)CC#N)C(CN1CCCCC1)C(c1ccccc1)c1c(O)c2ccccc2oc1=O (stereo not drawn)"
measured_attribute = "GI50"
assay_value = "> 100 µM (inactive)"

[[record]]
compound = "O=[N+]([O-])c1ccc2c(c1)nc1n2C(c2c(F)cccc2F)SC1 (stereo not drawn)"
measured_attribute = "GI50"
assay_value = "> 100 µM (inactive)"

[[record]]
compound = "COc1ccc(-c2nc(N)c(C#N)c3c2CCS(=O)(=O)c2ccc(C)cc2-3)cc1OC"
measured_attribute = "GI50"
assay_value = "51.2 µM (inactive)"


I'm hoping you can list GI50 for every compound here, please.
1. CCOC(=O)N1CCC(=O)C(CNC23CC4CC(CC(C4)C2)C3)C1 (stereo not drawn)
2. CC1CC2C(=O)N(c3ccccc3)C(=O)C2c2c1c1ccccc1n2Cc1ccccc1 (stereo not drawn)
3. CC(C)Nc1[nH]c(C(=O)c2ccccc2)c(N)c1C(=S)Nc1ccccc1
4. COc1ccc(-c2cc(-c3ccccc3)[nH]c(=S)c2C#N)cc1

Result string:
["> 100 µM (inactive)", "> 100 µM (inactive)", "67.8 µM (inactive)", "38.2 µM (inactive)"]

I'm hoping you can list GI50 for every compound here, please.
1. COc1ccc(N2C(=O)C(=O)N(C)C2=O)c2ccccc12
2. COc1cccc2cc(C(=O)Nc3ccccn3)c(=N)oc12
3. CC(=O)OCC1OC(n2nc(Cc3ccccc3)c(=S)[nH]c2=S)C(OC(C)=O)C(OC(C)=O)C1OC(C)=O (stereo not drawn)

Result string:
1. > 10 µM (inactive)
2. 64.1 µM (inactive)
3. 21.6 µM (inactive)
